System: HL-60
Experiment: Cytotoxicity against HL60 cells by Propidium iodide exclusion assay
Type: functional
Conditions: Homo sapiens, read-out: ED50 (the source's name)
pEC50: −log10 of the molar value.
Give measured pEC50 for each item. Keep answers brief.

// known answers, use as guide
>>> recordedresult("Cc1cc2c(o1)c(-c1ccc(CO)cc1)nn2-c1ccccc1")
"< 4.70"
>>> recordedresult("Cc1cc2c(o1)c(-c1ccc(C(=O)O)cc1)nn2Cc1ccccc1")
"< 4.70"

Let's switch to this molecule now.
The value of pEC50 measured for the molecule `Cc1cc2c(o1)c(-c1ccc(C(=O)O)cc1)nn2-c1ccccc1` turned out to be < 4.70
